TARGET OR SYSTEM: MLKL (Homo sapiens)
Sequence (Q8NB16 whole entry): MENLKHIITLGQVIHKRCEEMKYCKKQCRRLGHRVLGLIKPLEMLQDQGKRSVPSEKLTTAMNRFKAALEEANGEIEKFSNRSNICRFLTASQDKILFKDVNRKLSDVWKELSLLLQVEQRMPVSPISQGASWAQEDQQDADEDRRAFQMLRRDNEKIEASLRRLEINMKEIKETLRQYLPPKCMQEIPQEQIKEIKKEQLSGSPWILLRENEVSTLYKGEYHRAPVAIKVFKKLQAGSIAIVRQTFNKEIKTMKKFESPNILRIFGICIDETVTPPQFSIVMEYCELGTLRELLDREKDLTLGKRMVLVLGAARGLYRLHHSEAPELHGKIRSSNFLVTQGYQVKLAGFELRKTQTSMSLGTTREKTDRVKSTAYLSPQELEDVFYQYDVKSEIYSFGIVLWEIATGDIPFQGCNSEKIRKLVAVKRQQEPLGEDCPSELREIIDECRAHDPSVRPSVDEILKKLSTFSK
EXPERIMENT: MLKL degradation assay in HepG2 cell line (western blot)
Assay type: cell-based
Design: endogenous in cells; host or cells: HepG2 or HaCaT
EXPERIMENTAL CONDITIONS: compound 10 μM; cell line not given
Documented Degradation assay (Degradation %) 10 μM across a set of molecules
// return the numeric value with its unit appended

Reference set (2 entries):
MOLECULE	Degradation assay (Degradation %) 10 μM
Nc1ncc(-c2cnn(C3CCN(C(=O)COC4CCN(c5cccc6c5C(=O)N(C5CCC(=O)NC5=O)C6=O)CC4)CC3)c2)nc1C(=O)O[C@@H](C(=O)Nc1ccc(F)cc1)c1ccccc1 (stereo partly drawn)	71.63%
Nc1ncc(-c2cnn(C3CCN(CCCCCCNC(=O)CNc4cccc5c4C(=O)N(C4CCC(=O)NC4=O)C5=O)CC3)c2)nc1C(=O)O[C@@H](C(=O)Nc1ccc(F)cc1)c1ccccc1 (stereo partly drawn)	29.42%

Then there is this molecule:
Entry Nc1ncc(-c2cnn(C3CCN(C(=O)c4cn(C5CCN(C(=O)C6CCN(c7ccc8c(c7)C(=O)N(C7CCC(=O)NC7=O)C8=O)CC6)CC5)cn4)CC3)c2)nc1C(=O)O[C@@H](C(=O)Nc1ccc(F)cc1)c1ccccc1 (stereo partly drawn) : reported Degradation assay (Degradation %) 10 μM = ? 69.84%

====

TARGET OR SYSTEM: MLKL (Homo sapiens)
EXPERIMENT: MLKL degradation assay in HepG2 cell line (western blot)
Assay type: cell-based
Set-up: endogenous in cells; host or cells: HepG2 or HaCaT
EXPERIMENTAL CONDITIONS: compound 1 μM; cell line not given
OBSERVATION TYPE: Degradation assay (Degradation %) 1 μM
# value in %; strip the unit string

COMPOUND	OBSERVATION TYPE	UNITS OF MEASURE	RESULT
Nc1ncc(-c2cnn(C3CCN(CCCN4CC5CC4CN5C(=O)CNc4ccc5c(c4)C(=O)N(C4CCC(=O)NC4=O)C5=O)CC3)c2)nc1C(=O)O[C@@H](C(=O)Nc1ccc(F)cc1)c1ccccc1 (stereo partly shown) [TDH-454]	Degradation assay (Degradation %) 1 μM	%	87.16
Nc1ncc(-c2cnn(C3CCN(CCCN4CCN(CC5CCN(C(=O)CNc6ccc7c(c6)C(=O)N(C6CCC(=O)NC6=O)C7=O)CC5)CC4)CC3)c2)nc1C(=O)O[C@@H](C(=O)Nc1ccc(F)cc1)c1ccccc1 (stereo partly shown) [TDH-441]	Degradation assay (Degradation %) 1 μM	%	87.59
Nc1ncc(-c2cnn(C3CCN(C(=O)CC4CCN(C(=O)C5CCN(c6cccc7c6C(=O)N(C6CCC(=O)NC6=O)C7=O)CC5)CC4)CC3)c2)nc1C(=O)O[C@@H](C(=O)Nc1ccc(F)cc1)c1ccccc1 (stereo partly shown) [TDH-341]	Degradation assay (Degradation %) 1 μM	%	70.78

Then there is this compound:
Entry Nc1ncc(-c2cnn(C3CCN(CCCCCCCCCCNC(=O)C4CN(c5ccc6nnn(C7CCC(=O)NC7=O)c(=O)c6c5)C4)CC3)c2)nc1C(=O)O[C@@H](C(=O)Nc1ccc(F)cc1)c1ccccc1 (stereo partly shown) [TDH-178] : reported Degradation assay (Degradation %) 1 μM = ? 72.12

====

Documented Necroptosis inhibition assay (Rescue %) 1 μM across a set of molecules
System: FADD−/− Jurkat cells
EXPERIMENT: Necroptosis inhibition assay, TNF-α-induced necroptosis (CellTiter-Glo 2.0)
Assay type: cell-based, human
EXPERIMENTAL CONDITIONS: compound 1 μM; TNF-α 15 ng/mL
# value in %; strip the unit string

Reference set (3 entries):
MOLECULE	UNITS OF MEASURE	RESULT
Nc1ncc(-c2cn(C3CCN(CC4CCN(C(=O)C5CCN(c6cccc7c6C(=O)N(C6CCC(=O)NC6=O)C7=O)CC5)CC4)CC3)nn2)nc1C(=O)OC(C(=O)Nc1ccc(F)cc1)c1ccccc1 (stereo not shown)	%	45.31
Nc1ncc(-c2cnn(C3CCN(CCOCCOCCOCCNc4ccc5c(c4)C(=O)N(C4CCC(=O)NC4=O)C5=O)CC3)c2)nc1C(=O)O[C@@H](C(=O)Nc1ccc(F)cc1)c1ccccc1 (stereo partly shown)	%	37.01
Nc1ncc(-c2cnn(C3CCN(CC4CN(c5cccc6c5C(=O)N(C5CCC(=O)NC5=O)C6=O)CCO4)CC3)c2)nc1C(=O)OC(C(=O)Nc1ccc(F)cc1)c1ccccc1 (stereo not shown)	%	40.08

Then there is this molecule:
Entry Nc1ncc(-c2cnn(C3CCN(C(=O)COC4CCN(c5cccc6c5C(=O)N(C5CCC(=O)NC5=O)C6=O)CC4)CC3)c2)nc1C(=O)O[C@@H](C(=O)Nc1ccc(F)cc1)c1ccccc1 (stereo partly shown) : reported Necroptosis inhibition assay (Rescue %) 1 μM = ? 34.21

Ref: patent US20240252488A1
